- method_summary: Spectroscopic measurements (absorption, emission, quantum yield, extinction coefficient)
- Type: physicochemical
- run_conditions: BDNCA library, absorption

compound	Abs
COc1cc(/C=C/C2=[N+]3C(=C(c4ccc(NC(=O)CCl)cc4)c4cccn4[B-]3(F)F)C(C)=C2)cc(Br)c1OC [BDNCA-259]	561 nm
Cc1cc(/C=C/c2ccc(Oc3ccc(C=O)cc3)cc2)n2c1C(c1ccc(NC(=O)CCl)cc1)=C1C=CC=[N+]1[B-]2(F)F [BDNCA-304]	561 nm
CC(=O)OCCN(CCOC(C)=O)c1ccc(/C=C/C2=[N+]3C(=C(c4ccc(NC(=O)CCl)cc4)c4cccn4[B-]3(F)F)C(C)=C2)cc1 [BDNCA-114]	608 nm
Cc1cc(/C=C/c2ccccc2C(=O)O)n2c1C(c1ccc(NC(=O)CCl)cc1)=C1C=CC=[N+]1[B-]2(F)F [BDNCA-191]	556 nm
CC1=CC(/C=C/c2cccc(O)c2)=[N+]2C1=C(c1ccc(NC(=O)CCl)cc1)c1cccn1[B-]2(F)F [BDNCA-105]	556 nm
COc1cc(/C=C/C2=[N+]3C(=C(c4ccc(NC(=O)CCl)cc4)c4cccn4[B-]3(F)F)C(C)=C2)cc(OC)c1O [BDNCA-95]	574 nm
COc1cc(/C=C/C2=[N+]3C(=C(c4ccc(NC(=O)CCl)cc4)c4cccn4[B-]3(F)F)C(C)=C2)cc(OC)c1 [BDNCA-209]	556 nm

---

- method_summary: Spectroscopic measurements (absorption, emission, quantum yield, extinction coefficient)
- Assay type: physicochemical
- run_conditions: BDNCA library, fluorescence emission
measurement_type: Flu

compound	observed_result
CC1=CC(/C=C/c2ccc(C)c3ccccc23)=[N+]2C1=C(c1ccc(NC(=O)CCl)cc1)c1cccn1[B-]2(F)F [BDNCA-36]	610
CCCCc1ccc(/C=C/C2=[N+]3C(=C(c4ccc(NC(=O)CCl)cc4)c4cccn4[B-]3(F)F)C(C)=C2)cc1 [BDNCA-263]	582
COc1cc(F)c(/C=C/c2cc(C)c3n2[B-](F)(F)[N+]2=CC=CC2=C3c2ccc(NC(=O)CCl)cc2)cc1OC [BDNCA-305]	606
Cc1ccc(/C=C/c2cc(C)c3n2[B-](F)(F)[N+]2=CC=CC2=C3c2ccc(NC(=O)CCl)cc2)cc1 [BDNCA-208]	581
CC1=CC(/C=C/c2ccc(I)cc2)=[N+]2C1=C(c1ccc(NC(=O)CCl)cc1)c1cccn1[B-]2(F)F [BDNCA-237]	579
CC1=CC(/C=C/c2ccc(O)c([N+](=O)[O-])c2)=[N+]2C1=C(c1ccc(NC(=O)CCl)cc1)c1cccn1[B-]2(F)F [BDNCA-131]	weak
COc1ccc(/C=C/c2cc(C)c3n2[B-](F)(F)[N+]2=CC=CC2=C3c2ccc(NC(=O)CCl)cc2)c2ccccc12 [BDNCA-32]	649

---

- method_summary: Spectroscopic measurements (absorption, emission, quantum yield, extinction coefficient)
- Assay type: physicochemical
- run_conditions: quantum yield, BDNCA library

compound	Qunt. Yield
CC1=CC(/C=C/c2cc3ccccc3o2)=[N+]2C1=C(c1ccc(NC(=O)CCl)cc1)c1cccn1[B-]2(F)F [BDNCA-368]	0.03
CC1=CC(/C=C/c2c3ccccc3c(C)c3ccccc23)=[N+]2C1=C(c1ccc(NC(=O)CCl)cc1)c1cccn1[B-]2(F)F [BDNCA-340]	0.04
CC1=CC(/C=C/c2cccc(Oc3ccc(C(C)(C)C)cc3)c2)=[N+]2C1=C(c1ccc(NC(=O)CCl)cc1)c1cccn1[B-]2(F)F [BDNCA-435]	0.13
Cc1cc(/C=C/c2ccc(SC(F)(F)F)cc2)n2c1C(c1ccc(NC(=O)CCl)cc1)=C1C=CC=[N+]1[B-]2(F)F [BDNCA-363]	0.08
CCOc1c(/C=C/C2=[N+]3C(=C(c4ccc(NC(=O)CCl)cc4)c4cccn4[B-]3(F)F)C(C)=C2)cccc1OC [BDNCA-320]	0.10
